System: Nanoluciferase (engineered Oplophorus gracilirostris luciferase)
Test Description: Primary Nanoluciferase (NLuc) qHTS assay for identification of artifact compounds. (AID 1845222);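 note: NLuc secreted into diluted conditioned medium of S16 cells; 0% = DMSO and -100% = no enzyme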
Settings: NLuc-conditioned medium, Nano-Glo luminescence, 5 min; series mostly up to 54.1 µM
Active and inactive are the calls of the source. Calls come from the whole dose curve; as a rule, active = well fitted inhibition curve with a large enough effect; inconclusive = small, poorly fitted or top-dose-only effect; inactive = flat fitted curve, though single readings scatter. Where a SMILES comes first, the peptide text is derived from it. [ ]: non-standard residue; d: D form. dPhe(4-Cl) = N[C@H](Cc1ccc(Cl)cc1)C(=O)O; d2Nal = N[C@H](Cc1ccc2ccccc2c1)C(=O)O; dCit = NC(=O)NCCC[C@@H](N)C(=O)O; d3Pal = N[C@H](Cc1cccnc1)C(=O)O
Outcome Measure: activity, negative = inhibition

Below, 10 compounds whose answers are already recorded.
[
  {
    "Compound": "CC1(C)CCC2(C(=O)OC3OCC(O)C(O)C3O)CCC3(C)C(=CCC4C5(C)CC(O)C(OC6OC(COC7OCC(O)C(O)C7O)C(O)C(O)C6O)C(C)(C)C5CCC43C)C2C1 (stereo not drawn)",
    "activity, negative = inhibition": "0.507% [at 11.6 µM] (inactive)"
  },
  {
    "Compound": "CCC(O)(C(=O)OCc1ccccc1NC(=O)CCC(=O)O)C(C)O (stereo not drawn)",
    "activity, negative = inhibition": "inactive"
  },
  {
    "Compound": "CC(=O)O[C@@H]1C[C@H](O)[C@@]23CO[C@H](O)[C@]1(C)C2C[C@@H](O)[C@]1(C)C3C(=O)[C@H](OC(C)=O)[C@@]2(C)[C@H](c3ccoc3)C[C@H]3O[C@]321 (stereo partly drawn)",
    "activity, negative = inhibition": "inactive"
  },
  {
    "Compound": "CN1CCN(c2ccc(C(=O)Nc3n[nH]c4ccc(Cc5cc(F)cc(F)c5)cc34)c(NC3CCOCC3)c2)CC1",
    "activity, negative = inhibition": "inactive"
  },
  {
    "Compound": "Nc1ncnc2c([C@@H]3N[C@H](CO)[C@@H](O)[C@H]3O)c[nH]c12",
    "activity, negative = inhibition": "inactive"
  },
  {
    "Compound": "CC(O)/C=C/C1(O)C(C)C(O[C@@H]2O[C@H](CO)[C@@H](O)[C@H](O)[C@H]2O)C(O)CC1(C)C (stereo partly drawn)",
    "activity, negative = inhibition": "inactive"
  },
  {
    "Compound": "CC(C)Oc1ccc(C(=O)NC(CNC(=O)CN(C)C)Cc2ccc(-c3cn4cccc(C(C)O)c4n3)cc2)cc1Cl (stereo not drawn)",
    "activity, negative = inhibition": "inactive"
  },
  {
    "Compound": "COc1cc2c(cc1O)[C@H](c1ccc(O[C@@H]3O[C@H](CO)[C@@H](O)[C@H](O)[C@H]3O)c(OC)c1)[C@@H](CO)[C@](O)(CO)C2",
    "activity, negative = inhibition": "inactive"
  },
  {
    "Compound": "CC(=O)N[C@H](Cc1ccc2ccccc2c1)C(=O)N[C@H](Cc1ccc(Cl)cc1)C(=O)N[C@H](Cc1cccnc1)C(=O)N[C@@H](CO)C(=O)N[C@@H](Cc1ccc(O)cc1)C(=O)N[C@H](CCCNC(N)=O)C(=O)N[C@@H](CC(C)C)C(=O)N[C@@H](CCCN=C(N)N)C(=O)N1CCC[C@H]1C(=O)N[C@H](C)C(N)=O (Ac-[d2Nal][dPhe(4-Cl)][d3Pal]SY[dCit]LRP[dA]-NH2)",
    "activity, negative = inhibition": "inactive"
  },
  {
    "Compound": "Cn1nc(C(C)(C)C)cc1C(=O)NC(Cc1cccc(Cl)c1)C(=O)NCC#N (stereo not drawn)",
    "activity, negative = inhibition": "inactive"
  }
]

Data point: C[C@@H]1CCN(C(=O)N2CCCC2)C[C@@H]1N(C)c1ncnc2[nH]ccc12 ; activity, negative = inhibition = inactive

Data point: C/C(=C\C=C\C(C)C1CCC2(C)C3CCC4C(C)(C)C(=O)CCC45CC35CCC12C)C(=O)O (stereo not drawn) ; activity, negative = inhibition = inactive

Data point: C=C1C(=O)O[C@H]2C1[C@H](OC(=O)/C(=C/CO)COC(=O)/C(C)=C/CO)CC(=C)[C@@H]1CC(=O)[C@@H](C)[C@@H]12 (stereo partly drawn) ; activity, negative = inhibition = inactive
